Hello, the source for this data is patent US20260285888A1, in case you need it.

experiment: Study for confirmation of conversion to brexpiprazole in a buffer (stability of the evaluation compounds); assay type: physicochemical; conditions: in buffer; decrease in 60-minute vs 0-minute reaction sample; average of duplicate
Criterion: Concentration of evaluation compound decreased strictly under 70 nM. Met: Criterion met. Not met: Criterion not met.

Reference set (4 entries):
[
  {
    "COMPOUND": "CC(C)(C)OC(=O)NC(C)(C)C(=O)OCOP(=O)([O-])OC[N+]1(CCCCOc2ccc3ccc(=O)[nH]c3c2)CCN(c2cccc3sccc23)CC1 [EX 128]",
    "ASSIGNED_LABEL": "Criterion met"
  },
  {
    "COMPOUND": "CCCC(=O)OCOP(=O)([O-])OC[N+]1(CCCCOc2ccc3ccc(=O)[nH]c3c2)CCN(c2cccc3sccc23)CC1 [EX 121]",
    "ASSIGNED_LABEL": "Criterion not met"
  },
  {
    "COMPOUND": "COCCOC(=O)OCOP(=O)([O-])OC[N+]1(CCCCOc2ccc3ccc(=O)[nH]c3c2)CCN(c2cccc3sccc23)CC1 [EX 33]",
    "ASSIGNED_LABEL": "Criterion met"
  },
  {
    "COMPOUND": "CCOC(=O)[C@H](C)NP(=O)([O-])OC[N+]1(CCCCOc2ccc3ccc(=O)[nH]c3c2)CCN(c2cccc3sccc23)CC1 [EX 156]",
    "ASSIGNED_LABEL": "Criterion not met"
  }
]

Just wondering, is Concentration of evaluation compound decreased of CCOC(=O)C[C@@H](OP(=O)([O-])OC[N+]1(CCCCOc2ccc3ccc(=O)[nH]c3c2)CCN(c2cccc3sccc23)CC1)C(=O)OCC [EX 111] below 70 nM?
Criterion met

----------
Recorded measurements of Concentration of evaluation compound decreased, one per entry
experiment: Study for confirmation of conversion to brexpiprazole in a buffer (stability of the evaluation compounds); type: physicochemical; conditions: in buffer; decrease in 60-minute vs 0-minute reaction sample; average of duplicate
API: value field is a number in nM; no unit string.

[
  {
    "QUERY_SMILES": "COCCn1nc(C(=O)OCOP(=O)([O-])OC[N+]2(CCCCOc3ccc4ccc(=O)[nH]c4c3)CCN(c3cccc4sccc34)CC2)c2ccccc21",
    "UNIT_OF_MEASURE": "nM",
    "RESULT": 20
  },
  {
    "QUERY_SMILES": "CN1CCN(CCOP(=O)([O-])OC[N+]2(CCCCOc3ccc4ccc(=O)[nH]c4c3)CCN(c3cccc4sccc34)CC2)CC1",
    "UNIT_OF_MEASURE": "nM",
    "RESULT": 50
  }
]

Let's switch to this molecule now.
# get_value(readout='Concentration of evaluation compound decreased', item= Cc1ncccc1C(=O)OCOP(=O)([O-])OC[N+]1(CCCCOc2ccc3ccc(=O)[nH]c3c2)CCN(c2cccc3sccc23)CC1 )
-30

----------
assay: Study for confirmation of conversion to brexpiprazole in a buffer (stability of the evaluation compounds); type: physicochemical; settings: in buffer; decrease in 60-minute vs 0-minute reaction sample; average of duplicate
Recorded measurements of Concentration of evaluation compound decreased, one per entry
API: value field is a number in µM; no unit string.

// solved cases for Concentration of evaluation compound decreased follow
[
  {
    "MOLECULE": "CC(C)OC(=O)[C@H](C)NP(=O)([O-])OC[N+]1(CCCCOc2ccc3ccc(=O)[nH]c3c2)CCN(c2cccc3sccc23)CC1",
    "RESULT": 0.06
  },
  {
    "MOLECULE": "CCCCCCOC(=O)OC[N+]1(CCCCOc2ccc3ccc(=O)[nH]c3c2)CCN(c2cccc3sccc23)CC1.[I-] [REX 7, reference compound]",
    "RESULT": 0.27
  },
  {
    "MOLECULE": "O=C(OCOP(=O)([O-])OC[N+]1(CCCCOc2ccc3ccc(=O)[nH]c3c2)CCN(c2cccc3sccc23)CC1)N1CCOCC1",
    "RESULT": -0.01
  },
  {
    "MOLECULE": "O=C(OCOP(=O)([O-])OC[N+]1(CCCCOc2ccc3ccc(=O)[nH]c3c2)CCN(c2cccc3sccc23)CC1)OCC1CCOCC1",
    "RESULT": -0.07
  },
  {
    "MOLECULE": "CCOCCOCCOCCOC(=O)OCOP(=O)([O-])OC[N+]1(CCCCOc2ccc3ccc(=O)[nH]c3c2)CCN(c2cccc3sccc23)CC1",
    "RESULT": 0.00
  }
]

Let's switch to this molecule now.
# get_value(readout='Concentration of evaluation compound decreased', item= O=c1ccc2ccc(OCCCC[N+]3(COP(=O)([O-])OCCCCCCl)CCN(c4cccc5sccc45)CC3)cc2[nH]1 )
0.16

----------
Recorded measurements of Concentration of evaluation compound decreased, one per entry
assay: Study for confirmation of conversion to brexpiprazole in a buffer (stability of the evaluation compounds); type: physicochemical; conditions: in buffer; decrease in 60-minute vs 0-minute reaction sample; average of duplicate
API: value field is a number in nM; no unit string.

# get_value(readout='Concentration of evaluation compound decreased', item= COCCCOP(=O)([O-])OC[N+]1(CCCCOc2ccc3ccc(=O)[nH]c3c2)CCN(c2cccc3sccc23)CC1 [EX 49] )
50

Also, O=c1ccc2ccc(OCCCC[N+]3(COP(=O)([O-])OCCCCCCCBr)CCN(c4cccc5sccc45)CC3)cc2[nH]1 [EX 64] please.
30

Also, O=c1ccc2ccc(OCCCC[N+]3(COP(=O)([O-])OCCCCCCCCO)CCN(c4cccc5sccc45)CC3)cc2[nH]1 [EX 11] please.
30

Also, CCCOCCOP(=O)([O-])OC[N+]1(CCCCOc2ccc3ccc(=O)[nH]c3c2)CCN(c2cccc3sccc23)CC1 [EX 95] please.
-10

Also, CCOCCOCCOP(=O)([O-])OC[N+]1(CCCCOc2ccc3ccc(=O)[nH]c3c2)CCN(c2cccc3sccc23)CC1 [EX 98] please.
-20

Also, CCOCCCOP(=O)([O-])OC[N+]1(CCCCOc2ccc3ccc(=O)[nH]c3c2)CCN(c2cccc3sccc23)CC1 [EX 97] please.
90

Also, CCOC(=O)[C@H](C)OP(=O)([O-])OC[N+]1(CCCCOc2ccc3ccc(=O)[nH]c3c2)CCN(c2cccc3sccc23)CC1 [EX 104] please.
200

Also, CCCC(C)(C)C(=O)OCOP(=O)([O-])OC[N+]1(CCCCOc2ccc3ccc(=O)[nH]c3c2)CCN(c2cccc3sccc23)CC1 [EX 123] please.
-110

Also, O=c1ccc2ccc(OCCCC[N+]3(COP(=O)([O-])OCCCCCCO)CCN(c4cccc5sccc45)CC3)cc2[nH]1 [EX 44] please.
-50

Also, COCCCOC(=O)OCOP(=O)([O-])OC[N+]1(CCCCOc2ccc3ccc(=O)[nH]c3c2)CCN(c2cccc3sccc23)CC1 [EX 139] please.
120

Also, COP(=O)([O-])OC[N+]1(CCCCOc2ccc3ccc(=O)[nH]c3c2)CCN(c2cccc3sccc23)CC1 [EX 87] please.
0

Also, COCCOCOCCCCOP(=O)([O-])OC[N+]1(CCCCOc2ccc3ccc(=O)[nH]c3c2)CCN(c2cccc3sccc23)CC1 [EX 53] please.
60

Also, O=c1ccc2ccc(OCCCC[N+]3(COP(=O)([O-])OCCN4CCCCC4)CCN(c4cccc5sccc45)CC3)cc2[nH]1 [EX 118] please.
60

Also, CC(C)(C)C(=O)OCOP(=O)([O-])OC[N+]1(CCCCOc2ccc3ccc(=O)[nH]c3c2)CCN(c2cccc3sccc23)CC1 [EX 25] please.
-10

----------
assay: Study for confirmation of conversion to brexpiprazole in a buffer (stability of the evaluation compounds); format: physicochemical; conditions: in buffer; decrease in 60-minute vs 0-minute reaction sample; average of duplicate
Criterion: Concentration of evaluation compound decreased strictly under 70 nM. Met: met. Not met: not met.

Reference set (6 entries):
[
  {
    "MOLECULE": "Cc1cccc(C(=O)OCCCCCCOP(=O)([O-])OC[N+]2(CCCCOc3ccc4ccc(=O)[nH]c4c3)CCN(c3cccc4sccc34)CC2)n1 [EX 59]",
    "ASSIGNED_LABEL": "met"
  },
  {
    "MOLECULE": "CCOC(=O)CCCCCOC(=O)OCOP(=O)([O-])OC[N+]1(CCCCOc2ccc3ccc(=O)[nH]c3c2)CCN(c2cccc3sccc23)CC1 [EX 144]",
    "ASSIGNED_LABEL": "not met"
  },
  {
    "MOLECULE": "COCCOP(=O)([O-])OC[N+]1(CCCCOc2ccc3ccc(=O)[nH]c3c2)CCN(c2cccc3sccc23)CC1 [EX 12]",
    "ASSIGNED_LABEL": "met"
  },
  {
    "MOLECULE": "O=C(OCOP(=O)([O-])OC[N+]1(CCCCOc2ccc3ccc(=O)[nH]c3c2)CCN(c2cccc3sccc23)CC1)OC1CCOCC1 [EX 141]",
    "ASSIGNED_LABEL": "met"
  },
  {
    "MOLECULE": "CSCCCOP(=O)([O-])OC[N+]1(CCCCOc2ccc3ccc(=O)[nH]c3c2)CCN(c2cccc3sccc23)CC1 [EX 66]",
    "ASSIGNED_LABEL": "not met"
  },
  {
    "MOLECULE": "O=C(CCO)OCOP(=O)([O-])OC[N+]1(CCCCOc2ccc3ccc(=O)[nH]c3c2)CCN(c2cccc3sccc23)CC1 [EX 125]",
    "ASSIGNED_LABEL": "not met"
  }
]

Just wondering, is Concentration of evaluation compound decreased of O=c1ccc2ccc(OCCCC[N+]3(COP(=O)([O-])OCC4CC4)CCN(c4cccc5sccc45)CC3)cc2[nH]1 [EX 91] below 70 nM?
not met

Also, O=c1ccc2ccc(OCCCC[N+]3(COP(=O)([O-])OCCOCCO)CCN(c4cccc5sccc45)CC3)cc2[nH]1 [EX 93] please.
met

Also, CC(C)(CO)COP(=O)([O-])OC[N+]1(CCCCOc2ccc3ccc(=O)[nH]c3c2)CCN(c2cccc3sccc23)CC1 [EX 48] please.
met

Also, O=C(CCCCCO)OCOP(=O)([O-])OC[N+]1(CCCCOc2ccc3ccc(=O)[nH]c3c2)CCN(c2cccc3sccc23)CC1 [EX 126] please.
not met

Also, CCNP(=O)([O-])OC[N+]1(CCCCOc2ccc3ccc(=O)[nH]c3c2)CCN(c2cccc3sccc23)CC1 [EX 151] please.
met
